- tested-target: Sphingosine 1-phosphate receptor 1 (Homo sapiens, UniProt P21453)
- Sequence (P21453 whole entry): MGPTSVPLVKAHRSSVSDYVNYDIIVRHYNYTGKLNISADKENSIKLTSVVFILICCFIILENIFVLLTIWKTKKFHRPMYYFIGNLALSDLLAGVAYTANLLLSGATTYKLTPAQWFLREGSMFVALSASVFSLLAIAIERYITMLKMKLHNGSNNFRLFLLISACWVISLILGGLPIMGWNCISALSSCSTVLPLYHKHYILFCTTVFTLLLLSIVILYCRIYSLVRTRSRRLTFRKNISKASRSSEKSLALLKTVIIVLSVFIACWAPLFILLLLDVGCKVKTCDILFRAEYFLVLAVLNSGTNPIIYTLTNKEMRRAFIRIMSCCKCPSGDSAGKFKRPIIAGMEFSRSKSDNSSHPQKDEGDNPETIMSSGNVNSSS
- experiment-notes: Detecting Inhibition of cAMP Production
reported-property: EC50

Observe how each entry below is paired with its result.
chemical-structure	EC50
Cc1ccccc1-c1nc(-c2ccc3c(c2)NNN3CC(C)(C)O)no1	< 316 nM
CC(C)N1NNc2cc(-c3nc(-c4cccnc4Cl)no3)ccc21	< 316 nM
CC(C)n1nnc2cc(-c3nc(-c4ccccc4Cl)co3)ccc21	< 316 nM
Cc1cc(-c2noc(-c3ccc4c(c3)nnn4C3CCCC3)n2)ccn1	> 316 nM

// recorded EC50 for CC(C)N1NNc2cc(-c3nc(-c4cn[nH]c4)no3)ccc21 : > 316 nM

// recorded EC50 for Cc1cc(-c2noc(-c3ccc4c(c3)NNN4CC(C)(C)O)n2)c(C)o1 : > 316 nM

// recorded EC50 for Cc1cc(-c2noc(-c3ccc4c(c3)NNN4C(C)C)n2)c(C)o1 : < 316 nM

// recorded EC50 for CC(C)N1NNc2cc(-c3nc(-c4sccc4Cl)co3)ccc21 : < 316 nM

// recorded EC50 for Cc1occc1-c1noc(-c2ccc3c(c2)NNN3C(C)C)n1 : < 316 nM

----------
- tested-target: Sphingosine 1-phosphate receptor 1 (Homo sapiens, UniProt P21453)
- experiment-notes: Beta-Arrestin2 Recruitment Assay
pEC50: −log10 of the molar value.
Reported pEC50 values for the following compounds.

chemical-structure	tested-target	pEC50
Cc1ccccc1-c1nc(-c2ccc3c(c2)NNN3CC(C)(C)O)no1	Sphingosine 1-phosphate receptor 1 (Homo sapiens, UniProt P21453)	> 5.00
Cc1cc(-c2noc(-c3ccc4c(c3)NNN4CC(C)(C)O)n2)c(C)o1	Sphingosine 1-phosphate receptor 1 (Homo sapiens, UniProt P21453)	< 5.00
CC(C)N1NNc2cc(-c3nc(-c4cn[nH]c4)no3)ccc21	Sphingosine 1-phosphate receptor 1 (Homo sapiens, UniProt P21453)	< 5.00
Cc1cc(-c2noc(-c3ccc4c(c3)NNN4C(C)C)n2)c(C)o1	Sphingosine 1-phosphate receptor 1 (Homo sapiens, UniProt P21453)	> 5.00

// recorded pEC50 for Cc1cc(-c2noc(-c3ccc4c(c3)nnn4C3CCCC3)n2)ccn1 : < 5.00

// recorded pEC50 for CC(C)N1NNc2cc(-c3nc(-c4sccc4Cl)co3)ccc21 : > 5.00

// recorded pEC50 for Cc1occc1-c1noc(-c2ccc3c(c2)NNN3C(C)C)n1 : > 5.00

// recorded pEC50 for CC(C)N1NNc2cc(-c3nc(-c4cccnc4Cl)no3)ccc21 : > 5.00

// recorded pEC50 for CC(C)n1nnc2cc(-c3nc(-c4ccccc4Cl)co3)ccc21 : > 5.00

Origin of values: BindingDB's records for patent US11912693
